- target.or.system: His-PKC-theta (Homo sapiens)
- Construct: His; purchased Invitrogen
- measurement.description: PKC-theta Assay (384-well time resolved fluorescence, IMAP TR-FRET)
- Type: biochemical
- conditions.used: read-out: Act. Level (IC50 in the PKC-theta Assay)
recorded.endpoint: IC50

Cc1ccnn1CCNc1ncc(C#N)c(N[C@@H]2CC[C@H](O)C(C)(C)C2)n1 [Cmpd 193]	2000 to 10000 nM
Cc1ccc(CCNc2ncc(C#N)c(N[C@@H]3CC(O)C3(C)C)n2)o1 (stereo partly shown) [Cmpd 232]	100 to 800 nM
Cc1cc(C(F)(F)F)nn1CCNc1ncc(C#N)c(N[C@@H]2CC(O)C2(C)C)n1 (stereo partly shown) [Cmpd 225]	2000 to 10000 nM
CC1(C)[C@H](O)CCC[C@@H]1Nc1nc(NCCC2C(=O)Nc3ccc(F)cc32)ncc1C#N (stereo partly shown) [Cmpd 315]	100 to 800 nM

IN: Give its IC50 value. Item: C[C@]1(O)CC[C@@H](Nc2nc(NCc3cnccc3C(F)(F)F)ncc2C(F)(F)F)CC1 [Cmpd 46]
OUT: < 100 nM

IN: Similarly, CC1(C)C[C@H](Nc2nc(NCc3cncnc3C(F)(F)F)ncc2C#N)CC[C@@H]1O [Cmpd 43] ?
OUT: < 100 nM

IN: Similarly, O[C@H]1C[C@@H](Nc2nc(NCc3cnccc3C(F)(F)F)ncc2C(F)(F)F)C1 [Cmpd 95] ?
OUT: 100 to 800 nM

###

- target.or.system: His-PKC-theta (Homo sapiens, UniProt Q04759)
- Construct: His; purchased Invitrogen
- Sequence (Q04759 whole entry): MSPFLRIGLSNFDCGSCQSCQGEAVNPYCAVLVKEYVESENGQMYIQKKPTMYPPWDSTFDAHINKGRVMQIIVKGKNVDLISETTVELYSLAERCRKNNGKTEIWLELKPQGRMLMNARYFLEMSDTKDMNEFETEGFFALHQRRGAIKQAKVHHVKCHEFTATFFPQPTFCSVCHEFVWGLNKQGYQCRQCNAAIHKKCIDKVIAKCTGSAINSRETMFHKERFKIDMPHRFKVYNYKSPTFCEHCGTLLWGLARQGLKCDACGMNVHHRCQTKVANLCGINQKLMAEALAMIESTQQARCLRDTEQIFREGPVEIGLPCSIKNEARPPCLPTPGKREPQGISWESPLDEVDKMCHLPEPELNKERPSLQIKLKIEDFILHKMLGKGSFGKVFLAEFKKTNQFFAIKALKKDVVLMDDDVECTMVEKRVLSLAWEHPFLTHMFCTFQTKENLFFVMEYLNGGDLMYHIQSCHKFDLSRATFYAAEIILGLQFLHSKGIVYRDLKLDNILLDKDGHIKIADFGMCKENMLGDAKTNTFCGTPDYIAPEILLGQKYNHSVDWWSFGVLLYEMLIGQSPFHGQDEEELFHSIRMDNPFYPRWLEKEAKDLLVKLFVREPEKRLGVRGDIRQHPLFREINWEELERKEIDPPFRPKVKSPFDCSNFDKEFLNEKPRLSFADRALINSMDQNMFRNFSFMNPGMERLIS
- measurement.description: PKC-theta Assay (384-well time resolved fluorescence, IMAP TR-FRET)
- Format: biochemical
- conditions.used: read-out: Act. Level (IC50 in the PKC-theta Assay)
- Experimental: PKC-theta Assay. A 384-well time resolved fluorescence assay was used to monitor PKC-theta activity. The PKC-theta assay was run in the following assay buffer: 50 mM HEPES pH 7.6, 10 mM MgCl2, 1 mM DTT, 0.01% Triton X-100, 0.01% BSA and 0.1 mM EDTA. […] The assay plates were then incubated overnight at room temperature and read on a Perkin-Elmer Envision Reader.
recorded.endpoint: IC50

CC1(C)C[C@H](Nc2nc(NCCc3ccncn3)ncc2C#N)CC[C@@H]1O	2000 to 10000 nM

IN: Give the measured IC50 of COC1CC(Nc2nc(NCc3cnccc3C(F)(F)F)ncc2C(F)(F)F)C1(C)C (centres unmarked) [Cmpd 102] .
OUT: 100 to 800 nM

IN: Consider next the compound `CC1(C)[C@@H](O)C[C@H]1Nc1nc(NCCc2cc3ccccc3[nH]2)ncc1C#N` in the same way.
OUT: 800 to 2000 nM

IN: Next up: `COCc1noc(CCNc2ncc(C#N)c(N[C@@H]3CC[C@H](O)C(C)(C)C3)n2)n1`
OUT: 2000 to 10000 nM

IN: Now give it for `C[C@]1(O)CC[C@@H](Nc2nc(NCc3cncnc3C(F)(F)F)ncc2C#N)CC1` too.
OUT: 100 to 800 nM

IN: Also `Cc1ccc(CCNc2ncc(C#N)c(N[C@@H]3CC[C@H](O)C(C)(C)C3)n2)cn1` , if possible.
OUT: 800 to 2000 nM

IN: Ok, now `N#Cc1cnc(NCc2cncnc2-c2ccccc2)nc1N[C@H]1CC[C@@H](O)CC1`
OUT: < 100 nM

IN: Another compound to check: `CC1(C)[C@@H](O)C[C@H]1Nc1nc(NCCc2ncon2)ncc1C#N`
OUT: 2000 to 10000 nM

###

Reported IC50 values follow for various compounds
- target.or.system: His-PKC-theta (Homo sapiens)
- Construct: His; purchased Invitrogen
- measurement.description: PKC-theta Assay (384-well time resolved fluorescence, IMAP TR-FRET)
- Format: biochemical
- conditions.used: Table 2; read-out: Act. Level (IC50 in the PKC-theta Assay)

CC1(C)[C@@H](O)C[C@H]1Nc1nc(NCCc2ccc(C#N)cc2)ncc1C#N [Cmpd 38]	100 to 800 nM

IN: # IC50 lookup, item CC1(C)[C@@H](N)C[C@H]1Nc1nc(NCCc2cccc(Cl)c2)ncc1C#N [Cmpd 160]
OUT: 800 to 2000 nM

IN: Next up: CC1(C)C[C@H](Nc2nc(NCCc3cccc(S(N)(=O)=O)c3)ncc2C#N)CC[C@@H]1O [Cmpd 172]
OUT: 100 to 800 nM

IN: Now this one: Cc1nnnn1-c1ccccc1CNc1ncc(C(F)(F)F)c(NC2CCC(O)C(C)(C)C2)n1 (stereo not shown) [Cmpd 2]
OUT: < 100 nM

###

Listing of recorded pIC50 by entry.
- target.or.system: His-PKC-theta (Homo sapiens, UniProt Q04759)
- Construct: His; purchased Invitrogen
- measurement.description: PKC-theta Assay (384-well time resolved fluorescence, IMAP TR-FRET)
- Format: biochemical
- conditions.used: Table 2; read-out: Act. Level (IC50 in the PKC-theta Assay)
- Protocol: PKC-theta Assay. A 384-well time resolved fluorescence assay was used to monitor PKC-theta activity. The PKC-theta assay was run in the following assay buffer: 50 mM HEPES pH 7.6, 10 mM MgCl2, 1 mM DTT, 0.01% Triton X-100, 0.01% BSA and 0.1 mM EDTA. […] The assay plates were then incubated overnight at room temperature and read on a Perkin-Elmer Envision Reader.
pIC50: −log10 of the molar value.

Please review the following examples before continuing.
COc1cccc(CCNc2ncc(C#N)c(N[C@@H]3C[C@H](O)C3(C)C)n2)c1OC	5.70 to 6.10
CC1(C)[C@@H](O)C[C@H]1Nc1nc(NCCc2ccc(C(F)(F)F)cc2)ncc1C#N	5.70 to 6.10
Cc1cc(C)n(-c2ccc(CCNc3ncc(C#N)c(N[C@@H]4C[C@H](O)C4(C)C)n3)cc2)n1	5.70 to 6.10
CC1(C)C[C@H](Nc2nc(NCCc3ccc(-n4cccn4)c(Cl)c3)ncc2C#N)CC[C@@H]1O	> 7.00

IN: Bench note: what pIC50 did `CC1(C)[C@@H](Nc2nc(NCCc3cccc(Cl)c3)ncc2C#N)C[C@@H]1C(N)=O` show?
OUT: 6.10 to 7.00

IN: Now the same for `CC1(C)[C@H](N)C[C@@H]1Nc1nc(NCCc2cccc(Cl)c2)ncc1C#N`
OUT: > 7.00

IN: How about `CC1(C)[C@@H](O)C[C@H]1Nc1nc(NCCc2cccc(C(F)(F)F)c2)ncc1C#N` ?
OUT: 6.10 to 7.00

###

- target.or.system: His-PKC-theta (Homo sapiens, UniProt Q04759)
- Construct: His; purchased Invitrogen
- measurement.description: PKC-theta Assay (384-well time resolved fluorescence, IMAP TR-FRET)
- Assay type: biochemical
- conditions.used: Table 2; read-out: Act. Level (IC50 in the PKC-theta Assay)
- Experimental: PKC-theta Assay. A 384-well time resolved fluorescence assay was used to monitor PKC-theta activity. The PKC-theta assay was run in the following assay buffer: 50 mM HEPES pH 7.6, 10 mM MgCl2, 1 mM DTT, 0.01% Triton X-100, 0.01% BSA and 0.1 mM EDTA. […] The assay plates were then incubated overnight at room temperature and read on a Perkin-Elmer Envision Reader.
pIC50: −log10 of the molar value.
recorded.endpoint: pIC50

N#Cc1cnc(NCCc2cccc(F)c2)nc1N[C@H]1CC[C@@H](O)CC1	6.10 to 7.00
CC1(C)C[C@H](Nc2nc(NCCc3ccc(O)cc3)ncc2C#N)CC[C@@H]1O	> 7.00
CN(C)C(=O)c1cccc(CCNc2ncc(C#N)c(N[C@@H]3CC[C@H](O)C(C)(C)C3)n2)c1	5.00 to 5.70

We now examine a further compound.
IN: I am curious: what pIC50 value has been reported for `CC1(C)C[C@H](Nc2nc(NCCc3ccc(C#N)c(F)c3)ncc2C#N)CC[C@@H]1O` ?
OUT: 6.10 to 7.00

###

- target.or.system: His-PKC-theta (Homo sapiens, UniProt Q04759)
- Construct: His; purchased Invitrogen
- measurement.description: PKC-theta Assay (384-well time resolved fluorescence, IMAP TR-FRET)
- Type: biochemical
- conditions.used: read-out: Act. Level (IC50 in the PKC-theta Assay)
pIC50: −log10 of the molar value.
recorded.endpoint: pIC50

Solved cases (8 shown):
CC(C)c1ncncc1CNc1ncc(C#N)c(N[C@H]2C[C@@H](O)C2(C)C)n1 [Cmpd 119]	6.10 to 7.00
CC1(C)[C@H](O)C[C@@H]1Nc1nc(NCc2cncnc2OCCC(F)(F)F)ncc1C#N [Cmpd 89]	> 7.00
CC1(C)[C@@H](O)C[C@H]1Nc1nc(NCc2cnccc2C(F)(F)F)ncc1C(F)(F)F [Cmpd 24]	> 7.00
CC(C)(F)c1ncncc1CNc1ncc(C#N)c(N[C@H]2CC[C@@](C)(O)CC2)n1 [Cmpd 50]	> 7.00
CC(F)(F)COc1ncncc1CNc1ncc(C(F)(F)F)c(N[C@@H]2CC[C@H](O)C(C)(C)C2)n1 [Cmpd 29]	> 7.00
CCOc1ncncc1CNc1ncc(C#N)c(N[C@@H]2CC[C@H](O)C(C)(C)C2)n1 [Cmpd 37]	> 7.00
COc1cccc(CCNc2ncc(C#N)c(N[C@@H]3CC[C@H](O)C(C)(C)C3)n2)n1 [Cmpd 215]	5.70 to 6.10
N#Cc1ccc2[nH]cc(CCNc3ncc(C#N)c(N[C@H]4CC[C@@H](O)CC4)n3)c2c1 [Cmpd 163]	5.00 to 5.70

IN: Given the compound CC1(C)[C@H](CO)C[C@@H]1Nc1nc(NCc2cnccc2C(F)(F)F)ncc1C(F)(F)F [Cmpd 91] , what is its reported pIC50?
OUT: 6.10 to 7.00

IN: Try this compound too: CC(C)c1ncncc1CNc1ncc(C#N)c(N[C@@H]2C[C@H](O)C2(C)C)n1 [Cmpd 35]
OUT: > 7.00

IN: Again, but for CC1(C)C[C@H](Nc2nc(NCCc3ncon3)ncc2C#N)CC[C@@H]1O [Cmpd 191]
OUT: 5.00 to 5.70

IN: # repeat for CC1(C)[C@H](O)CCC[C@@H]1Nc1nc(NCCC2C(=O)Nc3cc(F)ccc32)ncc1C#N (stereo partly shown) [Cmpd 311]
OUT: 6.10 to 7.00

IN: Now try CC1(C)C[C@H](Nc2nc(NCC[C@]3(C)C(=O)Nc4ccccc43)ncc2C#N)CC[C@@H]1O [Cmpd 303] .
OUT: 5.00 to 5.70
